# Test system: Staphylococcus aureus
# Procedure text: Inhibitory activity against methicillin-sensitive staphylococcus aureus(MSSA)
# Format: functional
Observed property: MIC (µg/mL)
# value in µg/mL; strip the unit string

Molecule smiles	Observed property	Measured number
C[C@@H](O)[C@H]1C(=O)N2C(C(=O)[O-])=C(Sc3nc(-c4ccccc4)cs3)C[C@H]12.[Na+]	MIC	0.03

Notebook: `C[C@@H](O)[C@H]1C(=O)N2C(C(=O)[O-])=C(Sc3nc4ccc(Cl)cc4s3)[C@H](C)[C@H]12.[Na+]` , MIC read as 0.1

# MIC (compound: `C[C@@H](O)[C@H]1C(=O)N2C(C(=O)[O-])=C(Sc3ncc4ccccc4n3)[C@H](C)[C@H]12.[Na+]` ) is 0.02

For `C[C@@H](O)[C@H]1C(=O)N2C(C(=O)[O-])=C(Sc3nc4c(CO)csc4s3)[C@H](C)[C@H]12.[Na+]` the compound record lists MIC as 0.02
